# System: Tov-21-G
# ASSAY_TEXT: Primary qHTS to identify gynecologic anti-cancer compounds using libraries of approved drugs and bioactive compounds (AID 1345084); further: nearly all actives have a fitted effect of over 55% in size
# TEST_PARAMETERS: Gynecologic cancer cell panel viability, ATPlite luminescence, 48 h; series mostly up to 57.5 µM
Results filed as inconclusive are left out. Active and inactive are the calls of the source. The call rests on the fitted dose curve; in most records, active means well fitted cell-killing curve with a large enough effect; inconclusive means small, poorly fitted or top-dose-only effect, or effect the other way; inactive means flat fitted curve, though single readings scatter.
Your reply should match one of these outcome classes. yes (1) (active), no (0) (inactive)

[[record]]
compound = "NCCc1cnc[nH]1"
class = "no (0)"

[[record]]
compound = "CC(C(=O)O)c1cccc(C(=O)c2ccccc2)c1 (configuration not stated)"
class = "no (0)"

[[record]]
compound = "CN(Cc1cnc2nc(N)nc(N)c2n1)c1ccc(C(=O)N[C@@H](CCC(=O)O)C(=O)O)cc1"
class = "yes (1)"

[[record]]
compound = "Cc1ccc(-c2cc(C(F)(F)F)nn2-c2ccc(S(N)(=O)=O)cc2)cc1"
class = "no (0)"

[[record]]
compound = "CC12CC3CC(C)(C1)CC(N)(C3)C2"
class = "no (0)"


[Q] Tell me the assay call for CC(CCc1ccc(O)cc1)NCCc1ccc(O)c(O)c1 (configuration not stated) please.
[A] no (0)

[Q] Tell me the assay call for "O=C(c1ccc(F)cc1)C1CCN(CCn2c(=O)[nH]c3ccccc3c2=O)CC1" please.
[A] no (0)

---

# System: PAD
# ASSAY_TEXT: qHTS profiling for inhibitors of Plasmodium falciparum proliferation (AID 504749); further: nearly all actives have a fitted effect of over 60% in size
# TEST_PARAMETERS: P. falciparum in erythrocytes, SYBR Green DNA, 72 h; series mostly up to 28.7 µM
Inconclusive results are not listed. The source made the active and inactive calls. Calls follow the shape of the dose curve; as a rule, active = well fitted inhibition curve with a large enough effect; inconclusive = small, poorly fitted or top-dose-only effect; inactive = flat fitted curve, though single readings scatter.
Your reply should match one of these outcome classes. active, inactive

// below: answered molecules
[[record]]
molecule = "CC(COc1ccccc1)N(CCCl)Cc1ccccc1 (centres undefined)"
class = "inactive"

[[record]]
molecule = "COc1cc2c(c(OC)c1OC)-c1ccc(OC)c(=O)cc1[C@@H](NC(C)=O)CC2"
class = "inactive"

[[record]]
molecule = "CC(CCc1ccc(O)cc1)NCCc1ccc(O)c(O)c1 (centres undefined)"
class = "inactive"

[[record]]
molecule = "Nc1nnc(-c2cccc(Cl)c2Cl)c(N)n1"
class = "inactive"

[[record]]
molecule = "COc1ccc(CCN(C)CCCC(C#N)(c2ccc(OC)c(OC)c2)C(C)C)cc1OC (centres undefined)"
class = "inactive"

[[record]]
molecule = "CN(C)C(=N)N=C(N)N"
class = "inactive"

[[record]]
molecule = "CN(C)CCOC(c1ccccc1)c1ccccc1"
class = "inactive"

[[record]]
molecule = "Cc1cc(C(C)(C)C)cc(C)c1CC1=NCCN1"
class = "inactive"


[Q] Tell me the assay call for "CCCCc1oc2ccccc2c1C(=O)c1cc(I)c(OCCN(CC)CC)c(I)c1" please.
[A] active

[Q] Tell me the assay call for "Cn1cnc2c1c(=O)[nH]c(=O)n2C" please.
[A] inactive

[Q] Tell me the assay call for "NCCS(=O)(=O)O" please.
[A] inactive

[Q] Tell me the assay call for CC1(CN2CCC(n3c(=O)[nH]c4ccccc43)CC2)OCc2ccccc2-n2cccc21 (centres undefined) please.
[A] active

[Q] Tell me the assay call for "CCC1(c2ccccc2)C(=O)NCNC1=O" please.
[A] inactive

[Q] Tell me the assay call for "O=C(c1ccc(F)cc1)C1CCN(CCn2c(=O)[nH]c3ccccc3c2=O)CC1" please.
[A] inactive

[Q] Tell me the assay call for "Cc1cn([C@H]2C=C[C@@H](CO)O2)c(=O)[nH]c1=O" please.
[A] inactive

[Q] Tell me the assay call for "N[C@@H](Cc1c[nH]c2ccc(O)cc12)C(=O)O" please.
[A] inactive

[Q] Tell me the assay call for "COc1nc(C)nc(Cl)c1NC1=NCCN1" please.
[A] inactive

---

# ASSAY_TEXT: High-throughput drug toxicity screening in the BPDCN cell line Gen2.2 (AID 1224824);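 further: cells exposed to compounds for 48 h before reading; 100% = DMSO and 0% = bortezomib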
# TEST_PARAMETERS: Gen2.2 BPDCN cells; at 45.8 µM (top of the series) unless noted
MEASURED_PARAMETER: cell viability, % of control (lower = more cytotoxic) (%)
Give just the number in %; leave the unit off.

[[record]]
compound = "COc1ccccc1OCC(O)CN1CCN(CC(=O)Nc2c(C)cccc2C)CC1 (stereo unspecified)"
readout_number = 126


[Q] Tell me the measured cell viability, % of control (lower = more cytotoxic) of "Fc1ccc([C@@H]2CCNC[C@H]2COc2ccc3c(c2)OCO3)cc1" , please.
[A] 66.2

[Q] Tell me the measured cell viability, % of control (lower = more cytotoxic) of "Clc1ccc2nsnc2c1NC1=NCCN1" , please.
[A] 64.1

[Q] Tell me the measured cell viability, % of control (lower = more cytotoxic) of "Cn1cnc2c1c(=O)[nH]c(=O)n2C" , please.
[A] 12.2

[Q] Tell me the measured cell viability, % of control (lower = more cytotoxic) of CCCNCC(O)COc1ccccc1C(=O)CCc1ccccc1 (stereo unspecified) , please.
[A] 6.23

[Q] Tell me the measured cell viability, % of control (lower = more cytotoxic) of "N[C@@H](Cc1c[nH]c2ccc(O)cc12)C(=O)O" , please.
[A] 126

---

# ASSAY_TEXT: Quantitative High-Throughput drug screen in 47 multiple myeloma cell lines against the NCATS MIPE library collection: Delta47_JCRB cell viability assay (AID 1918925; further: nearly all actives have a fitted effect of over 45% in size; further: potency means the concentration at half of the fitted maximal effect)
# TEST_PARAMETERS: Delta47 myeloma viability, CellTiter-Glo ATP, 48 h; series mostly up to 45.8 µM
Results filed as inconclusive are left out. The source made the active and inactive calls. The call rests on the fitted dose curve; in most records, active means well fitted cell-killing curve with a large enough effect; inconclusive means small, poorly fitted or top-dose-only effect, or effect the other way; inactive means no such curve, though single readings can be large or run the other way.
MEASURED_PARAMETER: Potency

[[record]]
compound = "Nc1ccn([C@H]2CC[C@@H](CO)O2)c(=O)n1"
result = "inactive"

[[record]]
compound = "O=C1N(c2ccccc2)c2ccccc2C1(Cc1ccncc1)Cc1ccncc1"
result = "inactive"

[[record]]
compound = "O=c1c(-c2ccc(O)cc2)coc2cc(O)cc(O)c12"
result = "inactive"

[[record]]
compound = "Cc1ccccc1N1C(=O)c2cc(S(N)(=O)=O)c(Cl)cc2NC1C (stereo unspecified)"
result = "inactive"

[[record]]
compound = "CN1C2CCC1CC(OC(=O)C(CO)c1ccccc1)C2 (stereo unspecified)"
result = "inactive"

[[record]]
compound = "CC(C)Cc1ccc(C(C)C(=O)O)cc1 (stereo unspecified)"
result = "inactive"

[[record]]
compound = "CC(C)NCC(O)COc1ccc(CCOCC2CC2)cc1 (stereo unspecified)"
result = "inactive"

[[record]]
compound = "CS(=O)(=O)Nc1ccc([N+](=O)[O-])cc1Oc1ccccc1"
result = "inactive"

[[record]]
compound = "CCOC(=O)Nc1ccc(NCc2ccc(F)cc2)nc1N"
result = "inactive"

[[record]]
compound = "CC[N+](CC)(CC)CCOc1cccc(OCC[N+](CC)(CC)CC)c1OCC[N+](CC)(CC)CC"
result = "inactive"


Now for a further compound.
[Q] Tell me the measured Potency of "OCCN1CCN(CCCN2c3ccccc3Sc3ccc(C(F)(F)F)cc32)CC1" , please.
[A] 18.7 µM (active)

---

# ASSAY_TEXT: S16 Schwann cell PMP22 intronic element firefly luciferase assay (AID 624032); further: nearly all actives have a fitted effect of over 30% in size
# TEST_PARAMETERS: S16 rat Schwann cells, PMP22 element FLuc, 24 h; series mostly up to 57.5 µM
Results filed as inconclusive are left out. The source made the active and inactive calls. Calls come from the whole dose curve; as a rule, active = well fitted inhibition curve with a large enough effect; inconclusive = small, poorly fitted or top-dose-only effect; inactive = no such curve, though single readings can be large or run the other way.
Your reply should match one of these outcome classes. true (1) = active, false (0) = inactive

// below: answered compounds
[[record]]
input_smiles = "Cn1c(=O)c2c(ncn2C)n(C)c1=O"
class = "false (0)"

[[record]]
input_smiles = "CNCCCC12CCC(c3ccccc31)c1ccccc12"
class = "true (1)"

[[record]]
input_smiles = "CS(=O)(=O)CCNCc1ccc(-c2ccc3ncnc(Nc4ccc(OCc5cccc(F)c5)c(Cl)c4)c3c2)o1"
class = "false (0)"

[[record]]
input_smiles = "CC(C)(C)C(=O)Oc1ccc(S(=O)(=O)Nc2ccccc2C(=O)NCC(=O)O)cc1"
class = "false (0)"


[Q] Tell me the assay call for "CN(C)CCOC(c1ccccc1)c1ccccc1" please.
[A] false (0)

[Q] Tell me the assay call for "O=c1c(-c2ccc(O)cc2)coc2cc(O)cc(O)c12" please.
[A] false (0)

---

# ASSAY_TEXT: qHTS Screen of the MIPE 4.0 Collection Against Ewings Sarcoma (TC71) (AID 1259253); further: nearly all actives have a fitted effect of over 40% in size; further: potency means the concentration at half of the fitted maximal effect
# TEST_PARAMETERS: TC71 Ewing sarcoma viability, CellTiter-Glo, 48 h; series mostly up to 45.8 µM
Results filed as inconclusive are left out. Calls of active or inactive are those of the source. Calls come from the whole dose curve; as a rule, active = well fitted inhibition curve with a large enough effect; inconclusive = small, poorly fitted or top-dose-only effect; inactive = no such curve, though single readings can be large or run the other way.
MEASURED_PARAMETER: Potency

[[record]]
molecule = "COc1cc2c(c(OC)c1OC)-c1ccc(OC)c(=O)cc1[C@@H](NC(C)=O)CC2"
result = "inactive"

[[record]]
molecule = "COc1nc(C)nc(Cl)c1NC1=NCCN1"
result = "inactive"

[[record]]
molecule = "CC[C@@]1(O)C(=O)OCc2c1cc1n(c2=O)Cc2cc3c(CN(C)C)c(O)ccc3nc2-1"
result = "0.0372 µM (active)"

[[record]]
molecule = "CC(C)(C)C(=O)Oc1ccc(S(=O)(=O)Nc2ccccc2C(=O)NCC(=O)O)cc1"
result = "inactive"

[[record]]
molecule = "CN1CCC(=C2c3ccccc3C=Cc3ccccc32)CC1"
result = "16.6 µM (active)"


[Q] Tell me the measured Potency of CC(CCc1ccc(O)cc1)NCCc1ccc(O)c(O)c1 (configuration not stated) , please.
[A] 23.5 µM (active)

[Q] Tell me the measured Potency of COc1ccccc1N1CCN(CC(O)COc2cccc3ccccc23)CC1 (configuration not stated) , please.
[A] 16.6 µM (active)
